Reported pEC50 values are given for each entry in this list.
# STUDY TARGET: T1, 人PD-L1 (on cells) (human, UniProt Q9NZQ7 19-290)
# T1 construct: whole, on cells; One molecule for human PD-L1 on CHO-hPD-L1, on IFNγ-stimulated A375 and on CHO-hPD-L1-OKT3 cells; the cell is named under assay; also called CHO-hPD-L1稳定细胞株; 稳定表达人PD-L1的CHO
# T1 sequence (Q9NZQ7 19-290): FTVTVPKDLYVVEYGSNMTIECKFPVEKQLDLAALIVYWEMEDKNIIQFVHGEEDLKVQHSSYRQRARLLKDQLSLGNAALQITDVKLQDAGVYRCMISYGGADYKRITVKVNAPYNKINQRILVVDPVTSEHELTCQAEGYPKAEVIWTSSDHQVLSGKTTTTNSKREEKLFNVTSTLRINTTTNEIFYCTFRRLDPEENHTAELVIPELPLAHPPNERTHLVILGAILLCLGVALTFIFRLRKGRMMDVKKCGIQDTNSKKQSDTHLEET
# TEST SUMMARY: flow cytometry on IFNγ-stimulated A375 cells
pEC50: −log10 of the molar value.

Record excerpt, results attached:
Exercise: So what does the record say about pEC50 for 176L2H1 (antibody, V domains shown, Whole humanized mAb expressed in 293 cells; detected with anti-human IgG; also called 抗人PD-L1人源化抗体176L2H1) VH: QVQLQESGPGLVKPSETLSLTCAVYGDSITSGYWNWIRKPPGKGLEYIGYISYTGSTYQNPSLKSRITMSRDTSKNQYYLKLSSVTAADTAVYYCARSRAWIRTYFDYWGQGTLVTVSS VL: EIVLTQSPDFQSVTPKEKVTITCSVSSSISSSNLHWYQQKPDQSPKPWIYGTSNLASGVPSRFSGSGSGTDYTLTINSLEAEDAATYYCQQWSSYPLTFGQGTKLEIKR ?
Key: ~9.70

Exercise: Return reported pEC50; argument: 176L4H3 (antibody, V domains shown, Whole humanized mAb expressed in 293 cells; detected with anti-human IgG; also called 抗人PD-L1人源化抗体176L4H3) VH: QVQLQESGPGLVKPSETLSLTCAVYGDSITSGYWNWIRKPPGKKLEYIGYISYTGSTYQNPSLKSRITFSRDTSKNQYYLKLSSVTAADTAVYYCARSRAWIRTYFDYWGQGTLVTVSS VL: DIQMTQSPSSLSASVGDRVTITCSVSSSISSSNLHWYQQKPGKAPKPWIYGTSNLASGVPSRFSGSGSGTDYTLTISSLQPEDFATYYCQQWSSYPLTFGQGTKLEIKR
Key: ~9.70

Let us examine a further case.
Exercise: Report pEC50 for 176L5H2 (antibody, V domains shown, Whole humanized mAb expressed in 293 cells; detected with anti-human IgG; also called 抗人PD-L1人源化抗体176L5H2) VH: QVQLQESGPGLVKPSETLSLTCAVYGDSITSGYWNWIRKPPGKKLEYIGYISYTGSTYQNPSLKSRITMSRDTSKNQYYLKLSSVTAADTAVYYCARSRAWIRTYFDYWGQGTLVTVSS VL: EIVLTQSPSSLSASVGDRVTITCSVSSSISSSNLHWYQQKPGKAPKPWIYGTSNLASGVPSRFSGSGSGTDYTLTISSLQPEDFATYYCQQWSSYPLTFGQGTKLEIKR please.
Key: ~9.70
